Recorded kon by entry
# assay-target: T1, extracellular domain (ECD) of recombinant human Sortilin with a C-terminal HIS tag (ECD-huSortilin-HIS) (human, UniProt Q99523 78-755)
# T1 construct: Bought (R&D Systems); also called human sortilin-ECD; not shown: C-terminal HIS tag
# T1 sequence: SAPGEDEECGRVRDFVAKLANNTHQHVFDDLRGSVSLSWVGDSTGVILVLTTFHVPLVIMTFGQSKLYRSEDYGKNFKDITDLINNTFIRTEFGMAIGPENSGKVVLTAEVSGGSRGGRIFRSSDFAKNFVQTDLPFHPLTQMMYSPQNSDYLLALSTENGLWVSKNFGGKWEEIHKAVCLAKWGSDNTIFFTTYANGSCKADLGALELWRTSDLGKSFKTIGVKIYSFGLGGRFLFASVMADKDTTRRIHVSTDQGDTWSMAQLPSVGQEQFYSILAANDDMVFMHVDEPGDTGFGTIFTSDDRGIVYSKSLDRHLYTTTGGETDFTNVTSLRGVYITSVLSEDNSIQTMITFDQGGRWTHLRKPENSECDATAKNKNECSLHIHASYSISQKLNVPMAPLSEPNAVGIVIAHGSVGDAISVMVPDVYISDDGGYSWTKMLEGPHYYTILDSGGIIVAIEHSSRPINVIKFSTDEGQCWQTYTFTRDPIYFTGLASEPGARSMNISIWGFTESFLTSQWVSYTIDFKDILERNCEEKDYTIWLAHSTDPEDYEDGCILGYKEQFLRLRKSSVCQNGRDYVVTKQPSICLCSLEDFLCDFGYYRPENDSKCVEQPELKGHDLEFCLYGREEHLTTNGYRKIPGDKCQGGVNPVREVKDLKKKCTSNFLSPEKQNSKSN
# assay-details: SPR (Biacore T200), mAb captured by anti-human antibody on CM5, Sortilin 0.1-300 nM as analyte, global 1:1 fit
Numbers only; they are read as M⁻¹ s⁻¹.

Output kon of humanized 8H24 hu8H24VHv1/hu8H24VLv2 (antibody, V domains shown, Human IgG; also called 8H24H1L2; hu8H24H1L2) VH: QAQLVQSGAEVKKPGSSVKVSCKASGYTFTSYSMHWVRQAPGQGLEWIGAIYPGNDATSYNQKFKGRATLTVDKSTSTAYMELSSLRSEDTAVYFCAREGYYGSSFEAWFASWGQGTTVTVSS VL: DVVMTQTPSSLPVTPGEPASISCRSSQSIVHSNGNTYLEWYLQKPGQSPQLLIYKVSNRFSGVPDRFSGSGSGTDFTLTISRVEAEDVGVYYCFQGSHVLPTFGGGTKVEIK
450000

Output kon of humanized 5E20 hu5E20VHv5/hu5E20VLv4 (antibody, V domains shown, Human IgG; also called 5E20H5L4) VH: EVQLVESGGGLVQPGGSLRLSCAASGFTFSTYGMSWVRQAPDKRLEWVAIISSGGSYTYYSDTVKGRFTISRDNSKNSLYLQMNSLKAEDTAVYYCSRSSSHWYFDVWGQGTLVTVSS VL: DIQMTQSPSSVSASVGDRVTITCHASQGISSNIGWLQQKPGKAFKGLIYHGTNLKDGVPSRFSGSGSGADFTLTISSLQPEDFADYFCVQYAQFPYTFGQGTKVEKR
211000
